Test system: reconstructed human epidermis (RHE) samples
Assay: 3D in vitro reconstructed human epidermis (RHE) model, viable epidermal thickness measured with the machine-learning model after 4-day treatment
Conditions: human, 4 days, 10 uM
Reported Normalized thickness values follow for various compounds

N#CC[C@H](C1CCCC1)n1cc(-c2ncnc3[nH]ccc23)cn1 [Ruxolitinib]
0.81
CN(C)C/C=C/C(=O)Nc1cc2c(Nc3ccc(F)c(Cl)c3)ncnc2cc1O[C@H]1CCOC1 [Afatinib]
0.77
CS(=O)(=O)CCNCc1ccc(-c2ccc3ncnc(Nc4ccc(OCc5cccc(F)c5)c(Cl)c4)c3c2)o1 [Lapatinib]
0.47

Please find the next compound below.
[Q] Short answer please: Normalized thickness, reconstructed human epidermis (RHE) samples, entry C#Cc1cccc(Nc2ncnc3cc(OCCOC)c(OCCOC)cc23)c1 [Erlotinib]
[A] 0.41

---

Reported Normalized thickness values follow for various compounds
Test system: reconstructed human epidermis (RHE) samples
Assay: 3D in vitro reconstructed human epidermis (RHE) model, viable epidermal thickness measured with the machine-learning model after 4-day treatment
Details: human, 4 days, 1 uM
In your answer, state the number alone without any accompanying words.

C=CC(=O)N1CCC(Oc2cc3c(Nc4ccc(Cl)c(Cl)c4F)ncnc3cc2OC)CC1
0.65
CN(C)C/C=C/C(=O)Nc1cc2c(Nc3ccc(F)c(Cl)c3)ncnc2cc1O[C@H]1CCOC1
0.70
O=C(c1ccc(F)c(F)c1Nc1ccc(I)cc1F)N1CC(O)([C@@H]2CCCCN2)C1
0.71
CS(=O)(=O)CCNCc1ccc(-c2ccc3ncnc(Nc4ccc(OCc5cccc(F)c5)c(Cl)c4)c3c2)o1
0.66
CS(=O)(=O)N1CCN(Cc2cc3nc(-c4cccc5[nH]ncc45)nc(N4CCOCC4)c3s2)CC1
0.46
C=CC(=O)Nc1cc(Nc2nccc(-c3cn(C)c4ccccc34)n2)c(OC)cc1N(C)CCN(C)C
0.61

Please find the next compound below.
[Q] Short answer please: Normalized thickness, reconstructed human epidermis (RHE) samples, entry C#Cc1cccc(Nc2ncnc3cc(OCCOC)c(OCCOC)cc23)c1
[A] 0.53
